- System: PAD
- METHOD_SUMMARY: qHTS profiling for inhibitors of Plasmodium falciparum proliferation (AID 504749); also: nearly all actives have a fitted effect of over 60% in size
- EXPERIMENTAL_CONTEXT: P. falciparum in erythrocytes, SYBR Green DNA, 72 h; series mostly up to 28.7 µM
Inconclusive results are not listed. Activity calls are given as the source filed them. Calls follow the shape of the dose curve; as a rule, active = well fitted inhibition curve with a large enough effect; inconclusive = small, poorly fitted or top-dose-only effect; inactive = flat fitted curve, though single readings scatter. Where a SMILES comes first, the peptide text is derived from it. [ ]: non-standard residue; d: D form. pGlu = O=C1CC[C@@H](C(=O)O)N1; Thz = O=C(O)[C@@H]1CSCN1
Outcome codes: active, inactive

MOLECULE | GROUP
Cc1cc(O)c2ccccc2c1O | inactive
CCCCC[C@H](O)/C=C/[C@@H]1[C@@H](C/C=C\CCCC(=O)O)[C@@H](O)C[C@H]1O | inactive
O=C(Nc1ccc(C(=O)O)c(O)c1)c1ccccc1 | inactive
NC(=O)C(c1ccccc1)(c1ccccc1)[C@@H]1CCN(CCc2ccc3c(c2)CCO3)C1 | inactive
CCOC(=O)c1ccccc1O | inactive
Cc1ccc(O)c(-n2nc3ccccc3n2)c1 | inactive
COc1ccc(/C=C/C(=O)Nc2ccccc2C(=O)O)cc1OC | inactive
N=c1ccn2c(n1)O[C@H]1[C@H](O)[C@@H](CO)O[C@H]12 | inactive
Nc1ccc(O)c(C(=O)O)c1 | inactive
CC1(C)[C@@H](O)CC[C@]2(C)[C@H]3C(=O)C=C4[C@@H]5C[C@@](C)(C(=O)O)CC[C@]5(C)CC[C@@]4(C)[C@]3(C)CC[C@@H]12 | inactive
CN1CCN(c2cc3c(nn2)Oc2ccccc2N3C)CC1 | inactive
CN1[C@@H]2CC[C@H]1CC(OC(c1ccccc1)c1ccccc1)C2 (stereo partly drawn) | active
O=C(O)Cc1ccc(-c2ccccc2)cc1 | inactive
C=CC(N)CCC(=O)O (stereo not drawn) | inactive
Oc1c(Br)cc(Br)c2cccnc12 | inactive
CC(N)C(=O)OC(C)(C)Cc1ccc(Cl)cc1 (stereo not drawn) | inactive
CC1(C)S[C@@H]2[C@H](NC(=O)[C@H](NC(=O)N3CCN(S(C)(=O)=O)C3=O)c3ccccc3)C(=O)N2[C@H]1C(=O)O | inactive
CCCCCCCCCCCCCCCC(=O)OC(C)C | inactive
O=C(O)[C@H](CC(=O)N1C[C@H]2CCCC[C@H]2C1)Cc1ccccc1 | inactive
O=C1CC[C@@H](C(=O)N2CSC[C@H]2C(=O)O)N1 ([pGlu]-[Thz]-OH) | inactive
CCCSc1ccc2nc(NC(=O)OC)[nH]c2c1 | inactive
Cc1ccccc1CNc1ncnc2c1ncn2C1OC(CO)C(O)C1O (stereo not drawn) | inactive
CCCCCCCCCCCC(=O)[O][Sn]([CH2]CCC)([CH2]CCC)[O]C(=O)CCCCCCCCCCC | inactive

----------
- METHOD_SUMMARY: Primary qHTS for inhibitors of nuclear receptor binding SET domain protein 2 (NSD2) in an isogenic RCH-ACV NSD2 p.E1099K mutant (9B) (AID 1645876); also: nearly all actives have a fitted effect of over 70% in size
- EXPERIMENTAL_CONTEXT: RCH-ACV (leukaemia line) NSD2 E1099K (9B) viability, CellTiter-Glo, 72 h; series mostly up to 44.9 µM
Records with an inconclusive call do not appear. Active and inactive are the calls of the source. The call rests on the fitted dose curve; in most records, active means well fitted inhibition curve with a large enough effect; inconclusive means small, poorly fitted or top-dose-only effect; inactive means flat fitted curve, though single readings scatter.
Outcome codes: 1 = active, 0 = inactive

MOLECULE | GROUP
O=C(O)/C=C\C(=O)O | 0
Nc1ncnc2c1c(I)cn2[C@@H]1C[C@H](N)[C@@H](O)[C@H]1O | 1
CCC1C(=O)OCC1Cc1cncn1C (centres undefined) | 0
CN[C@H](CC(C)C)C(=O)N[C@H]1C(=O)N[C@@H](CC(N)=O)C(=O)N[C@H]2C(=O)N[C@H]3C(=O)N[C@H](C(=O)N[C@H](C(=O)O)c4cc(O)cc(O)c4-c4cc3ccc4O)[C@H](O)c3ccc(c(Cl)c3)Oc3cc2cc(c3O[C@@H]2O[C@H](CO)[C@@H](O)[C@H](O)[C@H]2O[C@H]2C[C@](C)(N)[C@H](O)[C@H](C)O2)Oc2ccc(cc2Cl)[C@H]1O | 0

----------
- METHOD_SUMMARY: Cell Viability - LYMP2-007 (AID 979);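 also: cells exposed to compound for 24 h before reading; nearly all actives have a fitted effect of over 60% in size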
- EXPERIMENTAL_CONTEXT: LYMP2-007 lymphoblastoid cell viability; series mostly up to 92.2 µM
Results filed as inconclusive are left out. The source made the active and inactive calls. Calls follow the shape of the dose curve; as a rule, active = well fitted cell-killing curve with a large enough effect; inconclusive = small, poorly fitted or top-dose-only effect; inactive = flat fitted curve, though single readings scatter.
Outcome codes: true (1) for active, false (0) for inactive

COMPOUND | GROUP
CCCOC(=O)c1ccc(O)cc1 | false (0)
COc1cc(/C=C/C(=O)CC(=O)/C=C/c2ccc(O)c(OC)c2)ccc1O | true (1)
O=c1cc(-c2ccccc2)oc2ccccc12 | false (0)
O=C(O)/C=C\C(=O)O | false (0)
S=c1[nH]c2ccccc2s1 | false (0)
C#C[C@]1(O)CC[C@H]2[C@@H]3CCc4cc(O)ccc4[C@H]3CC[C@@]21C | false (0)
Nc1ccc(O)c([N+](=O)[O-])c1 | false (0)
CCCCCCCCCCCCCCCCCC(=O)O | false (0)
CN1CCC[C@H]1c1cccnc1 | false (0)
NCCO | false (0)
Nc1ccc(O)c(C(=O)O)c1 | false (0)
CN(C)c1ccc(C(=C2C=CC(=[N+](C)C)C=C2)c2ccccc2)cc1 | true (1)
COc1cc(CNC(=O)CCCC/C=C/C(C)C)ccc1O | false (0)
CC(C)NCC(O)COc1cccc2ccccc12 (centres undefined) | false (0)

----------
- Tested on: HeLa
- METHOD_SUMMARY: Primary qHTS to identify gynecologic anti-cancer compounds using libraries of approved drugs and bioactive compounds (AID 1345084); also: nearly all actives have a fitted effect of over 55% in size
- EXPERIMENTAL_CONTEXT: Gynecologic cancer cell panel viability, ATPlite luminescence, 48 h; series mostly up to 57.5 µM
Records with an inconclusive call do not appear. The source made the active and inactive calls. The call rests on the fitted dose curve; in most records, active means well fitted cell-killing curve with a large enough effect; inconclusive means small, poorly fitted or top-dose-only effect, or effect the other way; inactive means flat fitted curve, though single readings scatter.
Outcome codes: 1 (active), -1 (inactive)

MOLECULE | GROUP
CCCOC(=O)c1ccc(O)cc1 | -1
Clc1ccccc1-c1nc(-c2ccncc2)no1 | 1
CC(C(=O)O)c1ccc(C(=O)c2cccs2)cc1 (stereo unspecified) | -1
COc1cc(CNC(=O)CCCC/C=C/C(C)C)ccc1O | -1
Oc1c(Br)cc(Br)c2cccnc12 | -1
O=C(Nc1ccc2c(c1)CCN(Cc1ncn[nH]1)C2)c1ccccc1-c1ccc(C(F)(F)F)cc1 | -1

----------
caspase-3 activation reference
- METHOD_SUMMARY: Cellular Toxicity (caspase-3) Hek293 (AID 664);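 also: cells exposed to compound for 16 h at 37 °C before readout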
- EXPERIMENTAL_CONTEXT: HEK293 caspase-3 activation, DMSO = 0%, 100 µM tamoxifen = 100%; at 92.2 µM (top of the series)
Inconclusive results are not listed.
ENDPOINT: caspase-3 activation (%)

COMPOUND | MEASURED_NUMBER
COc1cc(/C=C/C(=O)CC(=O)/C=C/c2ccc(O)c(OC)c2)ccc1O | 27.4
NCCO | -4.95
CC1(C)S[C@@H]2[C@H](NC(=O)[C@H](N)c3ccccc3)C(=O)N2[C@H]1C(=O)O | -0.638
COc1cc(CNC(=O)CCCC/C=C/C(C)C)ccc1O | 0.218
Nc1ccc(O)c([N+](=O)[O-])c1 | 0.408
CN(C)c1ccc(C(=C2C=CC(=[N+](C)C)C=C2)c2ccccc2)cc1 | -9.3
Nc1ccc(O)c(C(=O)O)c1 | 0.369
CC(C)NCC(O)COc1cccc2ccccc12 (centres undefined) | 0.268
S=c1[nH]c2ccccc2s1 | 1.33
O=c1cc(-c2ccccc2)oc2ccccc12 | -5.01
CN1CCC[C@H]1c1cccnc1 | 1.08
Nc1nc2ccc([N+](=O)[O-])cc2s1 | -4.39
C#C[C@]1(O)CC[C@H]2[C@@H]3CCc4cc(O)ccc4[C@H]3CC[C@@]21C | -0.747
CCCCCCCCCCCCCCCCCC(=O)O | 0.144

----------
- METHOD_SUMMARY: qHTS of pediatric cancer cell lines to identify multiple opportunities for drug repurposing: Confirmatory screen for SK-N-MC cells (AID 1347111);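 also: potency is read from the fitted curve at half-maximal effect; cells exposed to compound for 48 h before the readout; nearly all actives have a fitted effect of over 70% in size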
- EXPERIMENTAL_CONTEXT: SK-N-MC cell viability
Inconclusive results are not listed. Active and inactive are the calls of the source. Calls come from the whole dose curve; as a rule, active = well fitted cell-killing curve with a large enough effect; inconclusive = small, poorly fitted or top-dose-only effect; inactive = no such curve, though single readings can be large or run the other way.
ENDPOINT: Potency

MOLECULE | ENDPOINT | RESULT
COC(=O)c1nc(Cl)c(Cl)nc1N | Potency | 1170 nM (active)
CN(C)c1ccc(C(=C2C=CC(=[N+](C)C)C=C2)c2ccccc2)cc1 | Potency | 369 nM (active)
Oc1c(Br)cc(Br)c2cccnc12 | Potency | 1170 nM (active)
CCOC(=O)c1ccccc1O | Potency | 1650 nM (active)
CCCSc1ccc2nc(NC(=O)OC)[nH]c2c1 | Potency | 1580 nM (active)
N=C1N=C(N)c2cc3ccccc3cc21 | Potency | 17000 nM (active)
COc1cccc2c1C(=O)c1c(O)c3c(c(O)c1C2=O)C[C@@](O)(C(=O)CO)C[C@@H]3O[C@H]1C[C@H](N)[C@H](O[C@@H]2CCCCO2)[C@H](C)O1 | Potency | 1650 nM (active)

Just for reference, PubChem BioAssay (NCATS) is where these values come from.
